Entry source: patent US20250129135A1

# targetUnderTest: T1, human GIP receptor (human, UniProt P48546 22-466)
# T1 sequence (looked up): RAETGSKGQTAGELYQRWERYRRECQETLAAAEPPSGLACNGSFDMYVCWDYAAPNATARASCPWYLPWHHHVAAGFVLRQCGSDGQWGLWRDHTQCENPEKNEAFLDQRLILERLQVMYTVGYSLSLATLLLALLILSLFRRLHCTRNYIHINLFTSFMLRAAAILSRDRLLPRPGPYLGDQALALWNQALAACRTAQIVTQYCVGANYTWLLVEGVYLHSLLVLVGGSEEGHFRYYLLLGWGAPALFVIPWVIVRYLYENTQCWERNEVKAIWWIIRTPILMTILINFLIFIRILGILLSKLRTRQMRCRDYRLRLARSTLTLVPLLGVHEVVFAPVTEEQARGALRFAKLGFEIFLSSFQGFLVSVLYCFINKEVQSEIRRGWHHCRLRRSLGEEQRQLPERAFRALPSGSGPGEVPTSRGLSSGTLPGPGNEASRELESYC
# testMethodNotes: cell-based or functional assay
Please use met whenever cAMP EC50, CHO cells stably overexpressing human GIP R is not below 0.01 nM, and not met whenever it is.

{"binder": "YXQGTXTSDYSIXLDKKAQXAFIEFLLESHPSSXHPPXS (Aib at 2; αMeF at 6; αMeL at 13; Lys 17 side chain AEEAc-AEEAc-γGlu-CO(CH2)18COOH; Aib at 20; Aib at 34; Ac3c at 38; C-terminal amide (NH2)) [Compound 33]", "group": "not met"}
{"binder": "YXHGTXTSDYSIXLDKKAQXAFIEYLLEXHPSSGQPPPS (Aib at 2; αMeF(2F) at 6; αMeL at 13; Lys 17 side chain AEEAc-AEEAc-γGlu-CO(CH2)18COOH; Aib at 20; Aib at 29; C-terminal amide (NH2)) [Compound 6]", "group": "met"}
{"binder": "YXQGTXTSDYSIXLDKKAQXAFIEFLLESHPSSGAPPPS (Aib at 2; αMeF at 6; αMeL at 13; Lys 17 side chain AEEAc-AEEAc-γGlu-CO(CH2)18COOH; Aib at 20; C-terminal amide (NH2)) [Compound 26]", "group": "not met"}
{"binder": "YXQGTXTSDYSIXLDKKAQXAFIEFLLEGRPSSXHPPPS (Aib at 2; αMeF(2F) at 6; αMeL at 13; Lys 17 side chain AEEAc-AEEAc-γGlu-CO(CH2)18COOH; Aib at 20; Aib at 34; C-terminal amide (NH2)) [Compound 25]", "group": "met"}
{"binder": "YXQGTXTSDYSIXLDKKAQXAFIEFLLETRPSSXHPPPS (Aib at 2; αMeF(2F) at 6; αMeL at 13; Lys 17 side chain AEEAc-AEEAc-γGlu-CO(CH2)18COOH; Aib at 20; Aib at 34; C-terminal amide (NH2)) [Compound 39]", "group": "met"}
{"binder": "YXQGTXTSDYSIFLDKKAQXAFIEYLLEXHPSSGAPPPS (Aib at 2; αMeF(2F) at 6; Lys 17 side chain AEEAc-AEEAc-γGlu-CO(CH2)18COOH; Aib at 20; Aib at 29; C-terminal amide (NH2)) [Compound 18]", "group": "met"}
{"binder": "YXQGTXTSDYSIFLDKKAQXAFIEYLLEXHPSSGAPPXS (Aib at 2; αMeF(2F) at 6; Lys 17 side chain AEEAc-AEEAc-γGlu-CO(CH2)18COOH; Aib at 20; Aib at 29; Ac3c at 38; C-terminal amide (NH2)) [Compound 32]", "group": "met"}
{"binder": "YXQGTXTSDYSIXLDKKAQXAFIEFLLEGRPSSXHPPPS (Aib at 2; αMeF at 6; αMeL at 13; Lys 17 side chain AEEAc-AEEAc-γGlu-CO(CH2)18COOH; Aib at 20; Aib at 34; C-terminal amide (NH2)) [Compound 37]", "group": "met"}
{"binder": "YXQGTXTSDYSIXLDKKAQXAFIEFLLETGPSSGAPPPS (Aib at 2; αMeF(2F) at 6; αMeL at 13; Lys 17 side chain AEEAc-AEEAc-γGlu-CO(CH2)18COOH; Aib at 20; C-terminal amide (NH2)) [Compound 19]", "group": "not met"}
{"binder": "YXQGTXTSDYSIXLDKKAQXAFIEYLLETHPSSGAPPXS (Aib at 2; αMeF at 6; αMeL at 13; Lys 17 side chain AEEAc-AEEAc-γGlu-CO(CH2)18COOH; Aib at 20; Ac3c at 38; C-terminal amide (NH2)) [Compound 2]", "group": "met"}
{"binder": "YXQGTXTSDYSIXLDKKAQXAFIEFLLETGPSSGAPPPS (Aib at 2; αMeF at 6; αMeL at 13; Lys 17 side chain AEEAc-AEEAc-γGlu-CO(CH2)18COOH; Aib at 20; C-terminal amide (NH2)) [Compound 14]", "group": "met"}
{"binder": "YXQGTXTSDYSIXLDKKAQXAFIEYLLETGPSSGXPPPS (Aib at 2; αMeF at 6; αMeL at 13; Lys 17 side chain AEEAc-AEEAc-γGlu-CO(CH2)18COOH; Aib at 20; Aib at 35; C-terminal amide (NH2)) [Compound 7]", "group": "met"}
{"binder": "YXQGTXTSDYSILLDKKAQXAFIEFLLESHPSSXHPPXS (Aib at 2; αMeF(2F) at 6; Lys 17 side chain AEEAc-AEEAc-γGlu-CO(CH2)18COOH; Aib at 20; Aib at 34; Ac3c at 38; C-terminal amide (NH2)) [Compound 41]", "group": "met"}
{"binder": "YXQGTXTSDYSIXLDKKAQXAFIEYLLESHPSSXHPPXS (Aib at 2; αMeF(2F) at 6; αMeL at 13; Lys 17 side chain AEEAc-AEEAc-γGlu-CO(CH2)18COOH; Aib at 20; Aib at 34; Ac3c at 38; C-terminal amide (NH2)) [Compound 43]", "group": "met"}
{"binder": "YXQGTXTSDYSIFLDKKAQXAFIEYLLEGGPSSGAPPXS (Aib at 2; αMeF(2F) at 6; Lys 17 side chain AEEAc-AEEAc-γGlu-CO(CH2)18COOH; Aib at 20; Ac3c at 38; C-terminal amide (NH2)) [Compound 4]", "group": "met"}
{"binder": "YXQGTXTSDYSIXLDKKAQXAFIEYLLETGPSSGQPPXS (Aib at 2; αMeF at 6; αMeL at 13; Lys 17 side chain AEEAc-AEEAc-γGlu-CO(CH2)18COOH; Aib at 20; Ac3c at 38; C-terminal amide (NH2)) [Compound 35]", "group": "not met"}
{"binder": "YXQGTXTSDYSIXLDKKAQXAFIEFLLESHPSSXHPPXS (Aib at 2; αMeF(2F) at 6; αMeL at 13; Lys 17 side chain AEEAc-AEEAc-γGlu-CO(CH2)18COOH; Aib at 20; Aib at 34; Ac3c at 38; C-terminal amide (NH2)) [Compound 40]", "group": "met"}
{"binder": "YXQGTXTSDYSIXLDKKAQXAFIEFLLETGPSSXHPPPS (Aib at 2; αMeF(2F) at 6; αMeL at 13; Lys 17 side chain AEEAc-AEEAc-γGlu-CO(CH2)18COOH; Aib at 20; Aib at 34; C-terminal amide (NH2)) [Compound 38]", "group": "met"}
{"binder": "YXQGTXTSDYSIFLDKKAQXAFIEYLLESXPSSGAPPXS (Aib at 2; αMeF at 6; Lys 17 side chain AEEAc-AEEAc-γGlu-CO(CH2)18COOH; Aib at 20; Aib at 30; Ac3c at 38; C-terminal amide (NH2)) [Compound 29]", "group": "met"}
{"binder": "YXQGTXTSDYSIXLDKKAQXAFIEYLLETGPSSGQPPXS (Aib at 2; αMeF(2F) at 6; αMeL at 13; Lys 17 side chain AEEAc-AEEAc-γGlu-CO(CH2)18COOH; Aib at 20; Ac3c at 38; C-terminal amide (NH2)) [Compound 34]", "group": "not met"}
{"binder": "YXQGTXTSDYSIXLDKKAQXAFIEYLLETGPSSGQPPPS (Aib at 2; αMeF(2F) at 6; αMeL at 13; Lys 17 side chain AEEAc-AEEAc-γGlu-CO(CH2)18COOH; Aib at 20; C-terminal amide (NH2)) [Compound 23]", "group": "not met"}
{"binder": "YXQGTXTSDYSIXLDKKAQXAFIEYLLETGPSSGAPPXS (Aib at 2; αMeF at 6; αMeL at 13; Lys 17 side chain AEEAc-AEEAc-γGlu-CO(CH2)18COOH; Aib at 20; Ac3c at 38; C-terminal amide (NH2)) [Compound 1]", "group": "met"}
{"binder": "YXQGTXTSDYSIFLDKKAQXAFIEFLLEGGPSSGQPPPS (Aib at 2; αMeF(2F) at 6; Lys 17 side chain AEEAc-AEEAc-γGlu-CO(CH2)18COOH; Aib at 20; C-terminal amide (NH2)) [Compound 21]", "group": "not met"}
{"binder": "YXQGTXTSDYSIXLDKKAQXAFIEFLLEGGPSSGQPPPS (Aib at 2; αMeF(2F) at 6; αMeL at 13; Lys 17 side chain AEEAc-AEEAc-γGlu-CO(CH2)18COOH; Aib at 20; C-terminal amide (NH2)) [Compound 22]", "group": "not met"}
{"binder": "YXQGTXTSDYSIXLDKKAQXAFIEYLLESHPSSGAPPPS (Aib at 2; αMeF at 6; αMeF at 13; Lys 17 side chain AEEAc-AEEAc-γGlu-CO(CH2)18COOH; Aib at 20; C-terminal amide (NH2)) [Compound 27]", "group": "met"}
